Measurement Description: Single-dose pharmacokinetic trial, serum protocatechuic acid and conjugates after 150 g of chicory
Assay type: in vivo, human
Experimental Parameters: male, human, oral; men, n = 8, 150 g of chicory, serum; read-out: Cmax
Reported Metric: Cmax (µM)

- Compound: "O=C(O)c1ccc(O)c(O)c1 [PCA‐F, 3,4‐dihydroxybenzoic acid]"
  Measurement Unit: "µM"
  Readout Value: 3.1

---

Measurement Description: Single-dose pharmacokinetic trial, serum protocatechuic acid and conjugates after 150 g of chicory
Format: in vivo, human
Experimental Parameters: male, human, oral; men, n = 8, 150 g of chicory, serum; read-out: Tmax
Protocol: A single-dose pharmacokinetic trial was conducted to evaluate the acute (24 hr) bioavailability of protocatechuic acid from chicory juice. […] One portion of chicory juice was kept to quantify the content of protocatechuic acid. […] The apparent bioavailability of protocatechuic acid together was quantified using AUC0-24 divided by its ingested amount. Urinary and fecal recoveries were calculated using the total content of urinary and fecal protocatechuic acid divided by its ingested amount.

- Compound: "O=C(O)c1ccc(O)c(O)c1 [PCA‐F, 3,4‐dihydroxybenzoic acid]"
  Tmax: "1 h"

---

Below, each entry is listed alongside its reported Substrate amount in human fecal suspension.
Test system: human fecal suspensions with gut microbiota
Experimental Parameters: incubation time 0 h, initial dose 1 µmol, 37°C anaerobic
Reported Metric: Substrate amount in human fecal suspension (µmol)

- Compound: "O=C(O)c1cc(O)c(O)c(O)c1 [Gallic acid]"
  Test Target: "human fecal suspensions with gut microbiota"
  Readout Value: 0.96
- Compound: "O=C(O)/C=C/c1ccc(O)c(O)c1 [Caffeic acid]"
  Test Target: "human fecal suspensions with gut microbiota"
  Readout Value: 0.86
- Compound: "O=C(/C=C/c1ccc(O)c(O)c1)O[C@@H]1C[C@@](O)(C(=O)O)C[C@@H](O)[C@@H]1O [5‐caffeoylquinic acid]"
  Test Target: "human fecal suspensions with gut microbiota"
  Readout Value: 0.79
- Compound: "O=C(/C=C/c1ccc(O)c(O)c1)O[C@@H](C(=O)O)[C@@H](O)C(=O)O [Caftaric acid]"
  Test Target: "human fecal suspensions with gut microbiota"
  Readout Value: 0.92

---

Measurement Description: Urinary excretion/recovery of protocatechuic acid and conjugates after 150 g of chicory
Format: in vivo, human
Experimental Parameters: human, 150 g of chicory (as juice); 16 healthy adults, 150 g of chicory oral, 0-24 hr urine

- Molecule: "O=C(O)c1ccc(O)c(O)c1 [PCA‐F, 3,4‐dihydroxybenzoic acid]"
  dose excreted (%): 5.02

---

Measurement Description: Single-dose pharmacokinetic trial, serum protocatechuic acid and conjugates after 150 g of chicory
Type: in vivo, human
Experimental Parameters: female, human, oral; women, n = 8, 150 g of chicory, serum; read-out: Tmax
Reported Metric: Tmax

- Compound: "O=C(O)c1ccc(O)c(O)c1 [PCA‐F, 3,4‐dihydroxybenzoic acid]"
  Readout Value: "1 h"

---

Measurement Description: Fecal excretion/recovery of protocatechuic acid and conjugates after 150 g of chicory
Assay type: in vivo, human
Experimental Parameters: human, 150 g of chicory (as juice); 16 healthy adults, 150 g of chicory oral, 0-24 hr feces
Reported Metric: dose excreted (%)

- Molecule: "O=C(O)c1ccc(O)c(O)c1 [PCA‐F, 3,4‐dihydroxybenzoic acid]"
  Reported Metric: "dose excreted"
  Measurement Unit: "%"
  Readout Value: 3.25

---

Measurement Description: Single-dose pharmacokinetic trial, serum protocatechuic acid and conjugates after 150 g of chicory
Assay type: in vivo, human
Experimental Parameters: male, human, oral; men, n = 8, 150 g of chicory, serum; read-out: AUC0−24
Reported Metric: AUC(0-t) (µM·h)

- Compound: "O=C(O)c1ccc(O)c(O)c1 [PCA‐F, 3,4‐dihydroxybenzoic acid]"
  Measurement Unit: "µM·h"
  Readout Value: 16.6

---

Measurement Description: Single-dose pharmacokinetic trial, serum protocatechuic acid and conjugates after 150 g of chicory
Assay type: in vivo, human
Experimental Parameters: female, human, oral; women, n = 8, 150 g of chicory, serum; read-out: AUC0−24

- Compound: "O=C(O)c1ccc(O)c(O)c1 [PCA‐F, 3,4‐dihydroxybenzoic acid]"
  AUC(0-t), µM·h: 17.2

---

Measurement Description: Single-dose pharmacokinetic trial, serum protocatechuic acid and conjugates after 150 g of chicory
Type: in vivo, human
Experimental Parameters: female, human, oral; women, n = 8, 150 g of chicory, serum; read-out: Cmax
Reported Metric: Cmax (µM)

- Compound: "O=C(O)c1ccc(O)c(O)c1 [PCA‐F, 3,4‐dihydroxybenzoic acid]"
  Readout Value: 3.45

---

Measurement Description: Single-dose pharmacokinetic trial, serum protocatechuic acid and conjugates after 150 g of chicory
Type: in vivo, human
Experimental Parameters: male, human, oral; men, n = 8, 150 g of chicory, serum; read-out: T1/2z (converted)

- Molecule: "O=C(O)c1ccc(O)c(O)c1 [PCA‐F, 3,4‐dihydroxybenzoic acid]"
  half-life / h: 1.63

---

Measurement Description: Single-dose pharmacokinetic trial, serum protocatechuic acid and conjugates after 150 g of chicory
Assay type: in vivo, human
Experimental Parameters: female, human, oral; women, n = 8, 150 g of chicory, serum; read-out: T1/2z (converted)
Procedure: A single-dose pharmacokinetic trial was conducted to evaluate the acute (24 hr) bioavailability of protocatechuic acid from chicory juice. […] One portion of chicory juice was kept to quantify the content of protocatechuic acid. […] The apparent bioavailability of protocatechuic acid together was quantified using AUC0-24 divided by its ingested amount. Urinary and fecal recoveries were calculated using the total content of urinary and fecal protocatechuic acid divided by its ingested amount.
Reported Metric: half-life (h)

- Compound: "O=C(O)c1ccc(O)c(O)c1 [PCA‐F, 3,4‐dihydroxybenzoic acid]"
  Readout Value: 1.81
